Exercise: for every item that follows, state its recorded Ratio Ki.
# protocol-text: Selectivity ratio of Ki for binding affinity to bovine thrombin assessed as inhibition constant using tosyl-Gly-Pro-Arg-AMC as substrate to Ki for binding affinity to N-terminal MRGS(His)6GSDDDDK-tagged Matriptase (unknown origin) expressed in Escherichia coli assessed as inhibition constant using Mes-DArg-Pro-Arg-AMC as substrate
# condition-label: Homo sapiens
Output spec: single numeric token, no unit.

Exam item: Ratio Ki for `CC(C)(C)NC(=O)NC1CCN(C(=O)[C@H](Cc2cccc(C(=N)N)c2)NS(=O)(=O)c2cccc(-c3ccc(F)c(CO)c3)c2)CC1` ?
Marked response: 21

Exam item: Ratio Ki for `CC(C)(C)NC(=O)NC1CCN(C(=O)[C@H](Cc2cccc(C(=N)N)c2)NS(=O)(=O)c2cccc(-c3ccc(C(=N)N)cc3)c2)CC1` ?
Marked response: 561

Exam item: Ratio Ki for `COc1ccc(-c2cccc(S(=O)(=O)N[C@@H](Cc3cccc(C(=N)N)c3)C(=O)N3CCC(NC(=O)NC(C)C)CC3)c2)c(OC)c1` ?
Marked response: 29

Exam item: Ratio Ki for `CC(C)(C)NC(=O)NC1CCN(C(=O)[C@H](Cc2cccc(C(=N)N)c2)NS(=O)(=O)c2cccc(-c3cccc(CN)c3)c2)CC1` ?
Marked response: 1320

---

property-name: Ki

Exam item: Test system Coagulation factor X (Homo sapiens, UniProt P00742); read-out Ki; what value for `CC(C)(C)NC(=O)NC1CCN(C(=O)[C@H](Cc2cccc(C(=N)N)c2)NS(=O)(=O)c2cccc(-c3ccc(COC(C)(C)C)cc3)c2)CC1` ?
Marked response: 529 nM

Exam item: Test system Coagulation factor X (Homo sapiens, UniProt P00742); read-out Ki; what value for `COc1ccc(-c2cccc(S(=O)(=O)N[C@@H](Cc3cccc(C(=N)N)c3)C(=O)N3CCN(C(=O)C(C)(C)C)CC3)c2)c(OC)c1` ?
Marked response: 116 nM

Exam item: Test system Coagulation factor X (Homo sapiens, UniProt P00742); read-out Ki; what value for `COc1ccc(-c2cccc(S(=O)(=O)N[C@@H](Cc3cccc(C(=N)N)c3)C(=O)N3CCN(C(=O)NC4CCCCC4)CC3)c2)c(OC)c1` ?
Marked response: 10 nM

Exam item: Test system Coagulation factor X (Homo sapiens, UniProt P00742); read-out Ki; what value for `COc1ccc(-c2cccc(S(=O)(=O)N[C@@H](Cc3cccc(C(=N)N)c3)C(=O)N3CCN(C(=O)C4CCCCC4)CC3)c2)c(OC)c1` ?
Marked response: 95 nM

Exam item: Test system Coagulation factor X (Homo sapiens, UniProt P00742); read-out Ki; what value for `CC(C)(C)NC(=O)NC1CCN(C(=O)[C@H](Cc2cccc(C(=N)N)c2)NS(=O)(=O)c2cccc(-c3cccc(C(=N)N)c3)c2)CC1` ?
Marked response: 9 nM

Exam item: Test system Coagulation factor X (Homo sapiens, UniProt P00742); read-out Ki; what value for `CC(C)(C)NC(=O)NC1CCN(C(=O)[C@H](Cc2cccc(C(=N)N)c2)NS(=O)(=O)c2cccc(-c3cc(F)c(CO)c(F)c3)c2)CC1` ?
Marked response: 504 nM

Exam item: Test system Coagulation factor X (Homo sapiens, UniProt P00742); read-out Ki; what value for `COc1ccc(-c2cccc(S(=O)(=O)N[C@@H](Cc3cccc(C(=N)N)c3)C(=O)N3CCC(NC(=O)NC(C)(C)C)CC3)c2)c(OC)c1` ?
Marked response: 2 nM

Exam item: Test system Coagulation factor X (Homo sapiens, UniProt P00742); read-out Ki; what value for `CC(C)(C)NC(=O)NC1CCN(C(=O)[C@H](Cc2cccc(C(=N)N)c2)NS(=O)(=O)c2cccc(-c3ccc(CO)c(F)c3)c2)CC1` ?
Marked response: 190 nM

FYI, the data here is from ChEMBL document CHEMBL5113419.
